System: MDA-N
Experiment: NCI tumour cell line growth inhibition, 48 h
Activity calls are given as the source filed them. No stated cut-off is given here; in the data, active = GI50 up to about 1.1 µM and inactive = higher.
Give GI50 for every item shown.

Solved cases below.
> print(dat)
                                   compound  system.name               result
1  CC(=O)Nc1ccc(C(O)/C(=N/N)c2nc3ccc(Cl)cc3nc2O)cc1 (stereo not given)        MDA-N  > 100 µM (inactive)
2  COC(=O)C(NC(=O)CNC(=O)CSc1nnc(COc2ccc(Cl)cc2)n1-c1ccccc1)C(C)C (stereo not given)        MDA-N   21.6 µM (inactive)
3  CC(C)=CCc1ccc2[nH]c3c(c2c1)C(=O)C(=O)C(C)=C3C(O)C(C)O (stereo not given)        MDA-N   3.06 µM (inactive)
4                       CNC(=S)NN=C1NCCCCN1        MDA-N  > 100 µM (inactive)
5  CCOC(=O)c1c(C)n(Cc2ccc(Cl)cc2Cl)c2c1cc(O)c1[nH]c3c(c12)CCCC3        MDA-N   21.2 µM (inactive)
6  COc1cc2c(cc1OC)[C@@H](Nc1ccc(C#N)cc1)C1COC(=O)[C@@H]1C2c1cc(OC)c(O)c(OC)c1 (stereo not given in full)        MDA-N   3.18 µM (inactive)
7  NS(=O)(=O)c1cccc(NC(=S)NC(=O)Nc2ccc(Cl)c(Cl)c2)c1        MDA-N   18.6 µM (inactive)
8                  CCc1nc2cc(F)ccc2[nH]c1=O        MDA-N  > 100 µM (inactive)
9  Cc1cc(S(=O)(=O)Nc2nc(N)n[nH]2)c(Cl)cc1Cl        MDA-N   > 10 µM (inactive)

Could you now look at the following compound, please?
Per the reported MDA-N data, O=C(O)CCNc1ncc2c(n1)-c1ccccc1OC2 has GI50 of > 100 µM (inactive)

----------
Test system: PC-3
Assay: NCI tumour cell line growth inhibition, 48 h
Calls of active or inactive are those of the source. Rule as the data show it: active = GI50 up to about 1.1 µM and inactive = higher.
Allowed answers: active, inactive

Worked examples, 4 molecules total:
> print(dat)
                                   molecule  system.name  classification
1  Ic1cccc(/C=C/CN2CCN(CCOC(c3ccccc3)c3ccccc3)CC2)c1         PC-3        inactive
2  CN(C)CCN(C)c1ccc2c(=O)n(CCN(C)C)c(=O)n3c4ccccc4c(=O)c1c23         PC-3          active
3  CCN(CC)CCc1c2c(nc3ccccc13)C(=O)c1cccnc1C2=O         PC-3        inactive
4  Cc1ccc(Nc2nc(C)c(C(=O)CC(=O)C(=O)Nc3ccc(Cl)cc3)s2)cc1         PC-3        inactive

What did this assay record as the result for COC(=O)C(NC(=O)CNC(=O)CSc1nnc(COc2ccc(Cl)cc2)n1-c1ccccc1)C(C)C (configuration not stated) ?
inactive

Test call for this molecule, please: C=C(CN(C)C)C1(c2ccccc2)CC2(CCCC2)C(=O)O1 (configuration not stated)
inactive

// return assay outcome for CC1=Nc2nc3ccccc3n2C(C)(C)C1
inactive

----------
System: HT-29
Test: NCI tumour cell line growth inhibition, 48 h
Active and inactive are the calls of the source. Cut-off read from the data, not from the text of the source: active = GI50 up to about 1.1 µM and inactive = higher.
metric.name: GI50

// known answers, use as guide
> print(dat)
                                   compound               result
1          Nc1nc(Cl)c(C=O)c(NCC2(CO)CCC2)n1   31.4 µM (inactive)
2                  Nn1c(Cc2ccccc2)n[nH]c1=O  > 100 µM (inactive)
3  Nc1c2c(=O)[nH]c(=O)c2c(N)c2c(=O)c3ccccc3c(=O)c12    0.977 µM (active)

Can you give me GI50 for all of these, one by one?
1. O=C1CSC(c2c[nH]c3ccccc23)N1c1cccc([N+](=O)[O-])c1 (stereo not given)
2. CCCCN(CC)c1nc(C)nc2c1c(C)c(C)n2-c1c(C)cc(C)cc1C [ANTALARMIN]
3. CCC1(OC(=O)CNC)C(=O)OCc2c1cc1n(c2=O)Cc2cc3ccccc3nc2-1 (stereo not given)
4. O=C(CCC=C(S(=O)(=O)c1ccccc1)S(=O)(=O)c1ccccc1)c1ccccc1
5. COC(=O)[C@@H](NC(=O)N(Cc1ccccc1)C[C@H](CC(C)C)NC(=O)[C@@H](NC(=O)OC(C)(C)C)C(C)C)C(C)C
6. C=CC[N+](CCO)(CCO)CCCCCCCCCCCCCCCCCC

1. > 100 µM (inactive)
2. 10.5 µM (inactive)
3. 0.0335 µM (active)
4. 4.91 µM (inactive)
5. > 100 µM (inactive)
6. 3.08 µM (inactive)

The recorded GI50 for Cl.O=C(O)c1cccnc1 is > 100 µM (inactive)

Where these numbers come from: ChEMBL document CHEMBL1201862
